Test system: Mycobacterium tuberculosis Erdman (autoluminescent)
procedure.details: total FIC50 (Loewe) at 50% inhibition, three-drug combination (log2); higher = more antagonistic
assay.conditions: in vitro model: acidic pH 5.7; time point: constant (~7 days, model-specific)
Reported values of total FIC50 for individual entries

- molecule: "CC(C)/N=c1\\cc2n(-c3ccc(Cl)cc3)c3ccccc3nc-2cc1Nc1ccc(Cl)cc1 [clofazimine] + COc1c(N2C[C@@H]3CCCN[C@@H]3C2)c(F)cc2c(=O)c(C(=O)O)cn(C3CC3)c12 [moxifloxacin] + O=[N+]([O-])c1cn2c(n1)OC[C@@H](OCc1ccc(OC(F)(F)F)cc1)C2 [pretomanid]"
  total FIC50: 0.779
- molecule: "NNC(=O)c1ccncc1 [isoniazid] + NC(=O)c1cnccn1 [pyrazinamide] + CO[C@H]1/C=C/O[C@@]2(C)Oc3c(C)c(O)c4c(O)c(c(/C=N/N5CCN(C)CC5)c(O)c4c3C2=O)NC(=O)/C(C)=C\\C=C\\[C@H](C)[C@H](O)[C@@H](C)[C@@H](O)[C@@H](C)[C@H](OC(C)=O)[C@@H]1C [rifampicin]"
  total FIC50: -1.79
- molecule: "CC(=O)NC[C@H]1CN(c2ccc(N3CCOCC3)c(F)c2)C(=O)O1 [linezolid] + NC(=O)c1cnccn1 [pyrazinamide] + CO[C@H]1/C=C/O[C@@]2(C)Oc3c(C)c(O)c4c(O)c(c(/C=N/N5CCN(C6CCCC6)CC5)c(O)c4c3C2=O)NC(=O)/C(C)=C\\C=C\\[C@H](C)[C@H](O)[C@@H](C)[C@@H](O)[C@@H](C)[C@H](OC(C)=O)[C@@H]1C [rifapentine]"
  total FIC50: 0.0539

###

Tested on: Mycobacterium tuberculosis Erdman (autoluminescent)
procedure.details: GRinf, maximum normalised growth rate inhibition (three-drug combination) (unitless (-1 to 1)); higher = less effect (negative = killing)
assay.conditions: in vitro model: intracellular J774; time point: constant = terminal

- molecule: "CC[C@@H](CO)NCCN[C@@H](CC)CO [ethambutol] + NNC(=O)c1ccncc1 [isoniazid] + COc1c(N2C[C@@H]3CCCN[C@@H]3C2)c(F)cc2c(=O)c(C(=O)O)cn(C3CC3)c12 [moxifloxacin]"
  GRinf: -0.437
- molecule: "CC(C)/N=c1\\cc2n(-c3ccc(Cl)cc3)c3ccccc3nc-2cc1Nc1ccc(Cl)cc1 [clofazimine] + COc1c(N2C[C@@H]3CCCN[C@@H]3C2)c(F)cc2c(=O)c(C(=O)O)cn(C3CC3)c12 [moxifloxacin] + CO[C@H]1/C=C/O[C@@]2(C)Oc3c(C)c(O)c4c(O)c(c(/C=N/N5CCN(C6CCCC6)CC5)c(O)c4c3C2=O)NC(=O)/C(C)=C\\C=C\\[C@H](C)[C@H](O)[C@@H](C)[C@@H](O)[C@@H](C)[C@H](OC(C)=O)[C@@H]1C [rifapentine]"
  GRinf: -0.177
- molecule: "CC(=O)NC[C@H]1CN(c2ccc(N3CCOCC3)c(F)c2)C(=O)O1 [linezolid] + COc1c(N2C[C@@H]3CCCN[C@@H]3C2)c(F)cc2c(=O)c(C(=O)O)cn(C3CC3)c12 [moxifloxacin] + CO[C@H]1/C=C/O[C@@]2(C)Oc3c(C)c(O)c4c(O)c(c(/C=N/N5CCN(C)CC5)c(O)c4c3C2=O)NC(=O)/C(C)=C\\C=C\\[C@H](C)[C@H](O)[C@@H](C)[C@@H](O)[C@@H](C)[C@H](OC(C)=O)[C@@H]1C [rifampicin]"
  GRinf: -0.103
- molecule: "CC(C)/N=c1\\cc2n(-c3ccc(Cl)cc3)c3ccccc3nc-2cc1Nc1ccc(Cl)cc1 [clofazimine] + COc1c(N2C[C@@H]3CCCN[C@@H]3C2)c(F)cc2c(=O)c(C(=O)O)cn(C3CC3)c12 [moxifloxacin] + NC(=O)c1cnccn1 [pyrazinamide]"
  GRinf: -0.333
- molecule: "CC[C@@H](CO)NCCN[C@@H](CC)CO [ethambutol] + NC(=O)c1cnccn1 [pyrazinamide] + CO[C@H]1/C=C/O[C@@]2(C)Oc3c(C)c(O)c4c(O)c(c(/C=N/N5CCN(C)CC5)c(O)c4c3C2=O)NC(=O)/C(C)=C\\C=C\\[C@H](C)[C@H](O)[C@@H](C)[C@@H](O)[C@@H](C)[C@H](OC(C)=O)[C@@H]1C [rifampicin]"
  GRinf: -0.396
- molecule: "CC[C@@H](CO)NCCN[C@@H](CC)CO [ethambutol] + O=[N+]([O-])c1cn2c(n1)OC[C@@H](OCc1ccc(OC(F)(F)F)cc1)C2 [pretomanid] + NC(=O)c1cnccn1 [pyrazinamide]"
  GRinf: -0.544

Source: the supplement of paper PMC8617591
